# PROTOCOL DETAILS: FRG1 expression reporter modulators in myotubes – cell-based, C2C12 myotubes, firefly/Renilla luciferase, luminescence, FRG1 inhibition for FSHD, primary screen (AID 1084)
# MEASUREMENT CONTEXT: FRG1 promoter luciferase, higher = more signal, called active from +8 up or from −8 down
REPORTED ENDPOINT: z-score
API note: the answer field is a bare number with no unit suffix.

In the examples that follow, each entry is paired with its recorded z-score.
COc1cc(C(O)C2C=CC3C(=O)N(c4ccccc4)C(=O)C3N2Nc2ccccc2)cc(OC)c1OC (centres undefined) : 1.07
COCCOC(=O)N1C(=O)[C@@]2(c3cc(C#CCC(C(=O)OC)C(=O)OC)ccc31)[C@H](C(=O)Nc1nc3ccccc3s1)[C@H]1C(=O)O[C@H](c3ccccc3)[C@H](c3ccccc3)N1[C@@H]2c1ccc(O)cc1 : 0.203
COc1ccc([Si](C)(C)[C@H]2[C@H](CC(=O)N3CCC[C@H]3CO)O[C@@]3(C(=O)N(Cc4ccc(N5CCCCC5=O)cc4)c4ccccc43)[C@@H]2C)cc1 : -4.24
C=CCNC(=O)[C@H]1[C@@H]2C(=O)O[C@@H](c3ccccc3)[C@@H](c3ccccc3)N2[C@@H](c2ccccc2OCCO)[C@]12C(=O)N(C(=O)OCCOC)c1ccc(C#Cc3ccc(OC)cc3)cc12 : 1.34

// recorded z-score for Cc1ccc(C(C)CC(O)C2C=CC3C(=O)N(C)C(=O)C3N2Nc2ccccc2)o1 (centres undefined) : 0.651

// recorded z-score for C=CC[C@@]12N=C(c3ccc(OCCCO)cc3)O[C@@H]1c1ccccc1N(CCC)C2=O : 2.39

// recorded z-score for O=C1C2C=CC(C(O)c3cccs3)N(Nc3ccc([N+](=O)[O-])cc3)C2C(=O)N1c1ccccc1 (centres undefined) : 1.05

// recorded z-score for O=C1O[C@@H](c2ccccc2)[C@@H](c2ccccc2)N2[C@@H](c3ccc(OCCO)cc3)[C@]3(C(=O)Nc4ccc(C#CC5(O)CCCCCC5)cc43)[C@@H](C(=O)O)[C@H]12 : 0.259

// recorded z-score for CCCC[C@H]1OB(O)C[C@H]2C1=C(COc1ccccc1)C[C@H]1C(=O)C=CC(=O)[C@H]12 : -1.1

// recorded z-score for CN(C)CCCNC(=O)[C@@]1(C)c2ccccc2C(=O)N(Cc2ccc(OC(F)(F)F)cc2)[C@H]1c1ccc(CO)cc1 : -2.46

// recorded z-score for COC(=O)[C@H](Cc1ccc(O)cc1)N[C@@H](/C=C/C1CC1)[C@H](O)Cc1ccccc1 : -0.269

// recorded z-score for C=C(CCCC)C(=O)CC[C@@H](OC(=O)c1ccccc1-c1ccccc1C(=O)O)c1ccccc1OCCO : -0.39

// recorded z-score for COC(=O)[C@@]1(Cc2ccccc2)[C@H]2c3cc(C(=O)N(C)C)n(Cc4ccc(S(C)(=O)=O)cc4)c3C[C@H]2CN1C(=O)c1ccccc1 : 2.39

// recorded z-score for CC(C)NC(=O)[C@@H]1c2ccccc2C(=O)N(Cc2ccccc2C(F)(F)F)[C@H]1c1ccc(CO)cc1 : -1.26

====

# PROTOCOL DETAILS: blood-stage malaria parasite viability loss – strain 3D7, DAPI fluorescence, 100 nL, primary screen (AID 1184);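 further: parasites grown inside human red blood cells in medium with human serum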
# MEASUREMENT CONTEXT: P. falciparum 3D7 growth, 3 d, higher = more signal
REPORTED ENDPOINT: z-score
API note: the answer field is a bare number with no unit suffix.

CN1C(=O)C2C(C1=O)C1C=C(c3ccc(CO)cc3)C2C(C2CC2)N1C (centres undefined) : -1.97

// recorded z-score for COCCCNC(=O)[C@@]1(CCS(=O)(=O)c2ccccc2)COC(c2ccc(OCCCO)cc2)=N1 : 0.264

// recorded z-score for Cc1ccc(S[C@]2(C(=O)NCC(F)(F)F)CC(=O)N(Cc3ccccc3C(F)(F)F)[C@@H]2c2ccc(CO)cc2)cc1 : 0.186

// recorded z-score for COC(=O)[C@@]1(Cc2ccc(OC)cc2)[C@H]2c3cc(C(=O)N4CCCC4)n(Cc4ccc(C(F)(F)F)nc4)c3C[C@H]2CN1C(=O)c1ccccc1 : -1.5

// recorded z-score for C=CC1c2cc(O)c(OC)cc2CCN1C (centres undefined) : 0.166

// recorded z-score for COCCOC(=O)N1C(=O)[C@@]2(c3cc(C#CCC(C(=O)OC)C(=O)OC)ccc31)[C@H](C(=O)Nc1nc3ccccc3s1)[C@H]1C(=O)O[C@H](c3ccccc3)[C@H](c3ccccc3)N1[C@@H]2c1ccc(OCCO)cc1 : -1.85

// recorded z-score for O=C1O[C@@H](c2ccccc2)[C@@H](c2ccccc2)N2[C@@H](c3ccccc3OCCO)[C@]3(C(=O)Nc4ccc(C#CCCO)cc43)[C@@H](C(=O)NC[C@H](O)c3ccccc3)[C@H]12 : -1.81

// recorded z-score for CC(C)=CCCC(C)=CC(O)C1C=CC2C(=O)NC(=O)C2N1Nc1ccc(Cl)cc1Cl (centres undefined) : 0.812

// recorded z-score for COCCOC(=O)N1C(=O)[C@@]2(c3cc(C#Cc4ccc(OC)cc4)ccc31)[C@H](c1ccc(OCCO)cc1)N1[C@H](c3ccccc3)[C@H](c3ccccc3)OC(=O)[C@H]1[C@@H]2C(=O)NC[C@H](O)c1ccccc1 : -1.66

====

# PROTOCOL DETAILS: probe aShh binding to arrayed compounds – biochemical, biotinylated probe, 635/667 nm fluorescence, primary screen (AID 1114);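 further: probe is biotin-labelled aShh protein from a stem cell growth factor screen; measures binding of labelled protein to compounds printed on the slide; score merges feature fluorescence at 667 nm with signal-to-noise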
# MEASUREMENT CONTEXT: small-molecule microarray, higher = more signal
Listing of entries alongside the reported composite z-score.
API note: the answer field is a bare number with no unit suffix.

CC(C)(C)N1CC=CC23O[C@@H]4/C=C\CCCOC(=O)C4[C@H]2C(=O)N(CCCO)[C@@H]3C1=O (some centres not stated) : -0.0192

// recorded composite z-score for CC1CC/C=C\[C@H]2OC34C=CCN(c5ccc6ccccc6c5)C(=O)[C@H]3N(C(C)CO)C(=O)[C@@H]4C2C(=O)O1 (some centres not stated) : -0.291

// recorded composite z-score for C=CCOC(=O)[C@@H]1[C@H]2C(=O)O[C@H](c3ccccc3)[C@H](c3ccccc3)N2[C@H](c2ccc(OCCOC(=O)[C@H]3C[C@H]4C(=O)N5CCC[C@H]5C(=O)N4[C@H]3c3cccc(OCCO)c3)cc2)[C@@]12C(=O)Nc1ccc(I)cc12 : 0.138

// recorded composite z-score for COC(=O)[C@@]1(Cc2ccc(OC)cc2)[C@H]2c3cc(C(=O)N4CCCC4)n(CCn4cc([N+](=O)[O-])nc4C)c3C[C@H]2CN1C(=O)c1ccccc1 : 2.51

// recorded composite z-score for [N-]=[N+]=NCc1ccccc1[C@@H]1OC(c2ccc(OCCCO)cc2)=N[C@]1(Cc1ccccc1N=[N+]=[N-])C(=O)O : 0.541

// recorded composite z-score for CN(C)CCCCNC(=O)[C@H]1C[C@H]2C(=O)NCC(=O)N2[C@H]1c1ccc(O)cc1 : -0.501

// recorded composite z-score for CC(C)NC(=O)[C@@H]1c2ccccc2C(=O)N(Cc2ccccc2C(F)(F)F)[C@H]1c1ccc(CO)cc1 : 0.0649

====

# TARGET OF ASSAY: Follistatin-related protein 3 (Homo sapiens) (UniProt O95633)
# Sequence (O95633 whole entry, looked up): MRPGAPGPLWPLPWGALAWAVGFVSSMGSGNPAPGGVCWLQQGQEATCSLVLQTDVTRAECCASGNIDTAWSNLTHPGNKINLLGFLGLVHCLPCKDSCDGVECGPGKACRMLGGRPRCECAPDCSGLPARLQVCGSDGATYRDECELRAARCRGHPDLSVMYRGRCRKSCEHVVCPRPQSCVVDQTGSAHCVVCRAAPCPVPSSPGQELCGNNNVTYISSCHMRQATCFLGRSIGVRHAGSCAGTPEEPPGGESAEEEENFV
# PROTOCOL DETAILS: compounds binding follistatin-related protein 3 – biochemical, small-molecule microarray, 635 nm fluorescence, primary screen (AID 1105);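 further: score merges emission near 667 nm and signal to noise per printed spot across three slides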
# MEASUREMENT CONTEXT: FSTL3 binding, higher = more signal
Classification field: enter true (1) for composite z-score values not below 1, false (0) for values below it.

Here's what some known entries look like.
CN1C(=O)C2C(C3CC3)C=C3CN(Cc4cccc(Cl)c4)[C@@H]([C@@H](O)Cc4ccccc4)C3C2C1=O (some centres not stated) : false (0)
CC1CC/C=C\[C@H]2OC34C=CCN(Cc5ccccc5)C(=O)[C@H]3N(CCCCCCO)C(=O)[C@@H]4C2C(=O)O1 (some centres not stated) : false (0)
Cc1ccccc1C(O)C1C=CC2C(=O)N(c3ccccc3)C(=O)C2N1Nc1ccccc1 (configuration not stated) : true (1)

Does the compound NC(=O)N1C(=O)C2C(C1=O)C1C=C(CCCO)C2C(c2ccc(CN3CCCC3)cc2)N1Cc1sc2ccccc2c1Cl (configuration not stated) have recorded composite z-score that is 1 or more?
false (0)

Does the compound C=CCC(OC(C)=O)[C@@H]1[C@@H](N(Cc2ccc(-c3ccccc3)cc2)C(=O)c2cccc3ccccc23)c2cc(OCCCO)ccc2N1C(=O)Cc1ccc(OC)cc1 (some centres not stated) have recorded composite z-score that is 1 or more?
false (0)

Does the compound COC(=O)[C@@]1(Cc2ccccc2)N=C(c2ccc(OCCCO)cc2)O[C@H]1c1ccccc1CN=[N+]=[N-] have recorded composite z-score that is 1 or more?
false (0)

Does the compound C=CCOC(=O)[C@@H]1[C@H]2C(=O)O[C@H](c3ccccc3)[C@H](c3ccccc3)N2[C@H](c2ccc(OCCOC(=O)[C@H]3C[C@H]4C(=O)NCC(=O)N4[C@H]3c3cccc(OCCO)c3)cc2)[C@@]12C(=O)Nc1ccc(I)cc12 have recorded composite z-score that is 1 or more?
true (1)
